- System: HaCaT cells
- experiment-notes: Alamar Blue cell viability/cytotoxicity assay, HaCaT
- Format: cell-based
- condition-context: Homo sapiens, 48 h
endpoint-name: IC50 (µM)

>>> numeric_value("O=[N+]([O-])NC1=NCCN1Cc1ccc(Cl)nc1")
482

====

- Tested on: A431 cells
- experiment-notes: Alamar Blue cell viability/cytotoxicity assay, A431
- Format: cell-based
- condition-context: Homo sapiens, A-431, 48 h
endpoint-name: IC50 (µM)

>>> numeric_value("O=[N+]([O-])NC1=NCCN1Cc1ccc(Cl)nc1 [Imidacloprid, imidacloprid]")
389

====

- Tested on: RAW 264.7 cells
- experiment-notes: Alamar Blue cell viability/cytotoxicity assay, RAW 264.7
- Format: cell-based
- condition-context: Mus musculus, RAW264.7; RAW 264.7, 24 h exposure, mean ± S.D.; read-out: IC50
pIC50: −log10 of the molar value.
endpoint-name: pIC50

>>> numeric_value("C=CCOC(Cn1ccnc1)c1ccc(Cl)cc1Cl (stereo not shown)")
4.50
